human adenosine A2A receptors (Homo sapiens) measurements of % cAMP production hA2A, listed per entry.
Sequence (P29274 whole entry): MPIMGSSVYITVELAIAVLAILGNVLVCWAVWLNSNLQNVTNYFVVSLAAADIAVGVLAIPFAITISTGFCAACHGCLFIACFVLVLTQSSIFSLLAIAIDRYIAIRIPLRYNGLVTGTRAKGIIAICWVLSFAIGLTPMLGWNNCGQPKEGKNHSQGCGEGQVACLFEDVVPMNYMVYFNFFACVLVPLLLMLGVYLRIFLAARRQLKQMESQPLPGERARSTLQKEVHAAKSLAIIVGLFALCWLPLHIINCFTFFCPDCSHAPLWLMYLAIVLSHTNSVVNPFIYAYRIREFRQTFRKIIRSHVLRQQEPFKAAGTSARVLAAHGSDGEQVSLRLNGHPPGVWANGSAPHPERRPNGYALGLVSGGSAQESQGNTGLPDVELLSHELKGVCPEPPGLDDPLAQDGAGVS
Quantity name: % cAMP production hA2A

>>> result("CCCCC#Cc1nc(N)c2nc(NCCCC)n([C@@H]3O[C@H](CO)[C@@H](O)[C@H]3O)c2n1")
"72% (63–82)"
>>> result("CCCC/C=C/c1nc(N)c2nc(NCCCC)n([C@@H]3O[C@H](CO)[C@@H](O)[C@H]3O)c2n1 [Compound 20, 2-((E)-1-hexenyl)-8-butylaminoadenosine]")
"36% (33–40)"
>>> result("CCCCC#Cc1nc(N)c2nc(C#CCCCC)n([C@@H]3O[C@H](CO)[C@@H](O)[C@H]3O)c2n1")
"99% (98–99)"
>>> result("CCCCC#Cc1nc(N)c2nc(NCC)n([C@@H]3O[C@H](CO)[C@@H](O)[C@H]3O)c2n1")
"134% (124–143)"

* * *

Measurement target: adenosine A1 receptor (Rattus norvegicus, UniProt P25099)
Sequence (P25099 1-326): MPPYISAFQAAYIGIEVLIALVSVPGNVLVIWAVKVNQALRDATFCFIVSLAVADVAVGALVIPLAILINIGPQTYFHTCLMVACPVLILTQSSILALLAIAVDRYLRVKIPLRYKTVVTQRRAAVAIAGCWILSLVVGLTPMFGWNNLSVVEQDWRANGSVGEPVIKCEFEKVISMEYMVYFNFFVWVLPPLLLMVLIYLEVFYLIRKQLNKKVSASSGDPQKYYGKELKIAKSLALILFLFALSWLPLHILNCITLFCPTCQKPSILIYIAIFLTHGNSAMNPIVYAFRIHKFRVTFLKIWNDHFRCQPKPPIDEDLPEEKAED
Assay comment: biochemical
Applied conditions: read-out: % displacement at 10^-5 M, A1
Quantity name: inhibition at 10 µM (%)

>>> numeric_value("Nc1nc(I)nc2c1ncn2[C@@H]1O[C@H](CO)[C@@H](O)[C@H]1O [Compound 1, 2-Iodoadenosine]")
36.1
>>> numeric_value("CCCC/C=C/c1nc(N)c2nc(NC)n([C@@H]3O[C@H](CO)[C@@H](O)[C@H]3O)c2n1 [Compound 17, 2-((E)-1-Hexenyl)-8-methylaminoadenosine]")
17.9
>>> numeric_value("CCCC/C=C/c1nc(N)c2nc(NCCC)n([C@@H]3O[C@H](CO)[C@@H](O)[C@H]3O)c2n1 [Compound 19, 2-((E)-1-hexenyl)-8-propylaminoadenosine]")
49.5
>>> numeric_value("CCCNc1nc2c(N)nc(I)nc2n1[C@@H]1O[C@H](CO)[C@@H](O)[C@H]1O [Compound 9, 2-Iodo-8-propylaminoadenosine]")
40.2

* * *

# A3/A2A per record follows
Measurement target: UniProtKB P30543
Sequence (P30543 whole entry): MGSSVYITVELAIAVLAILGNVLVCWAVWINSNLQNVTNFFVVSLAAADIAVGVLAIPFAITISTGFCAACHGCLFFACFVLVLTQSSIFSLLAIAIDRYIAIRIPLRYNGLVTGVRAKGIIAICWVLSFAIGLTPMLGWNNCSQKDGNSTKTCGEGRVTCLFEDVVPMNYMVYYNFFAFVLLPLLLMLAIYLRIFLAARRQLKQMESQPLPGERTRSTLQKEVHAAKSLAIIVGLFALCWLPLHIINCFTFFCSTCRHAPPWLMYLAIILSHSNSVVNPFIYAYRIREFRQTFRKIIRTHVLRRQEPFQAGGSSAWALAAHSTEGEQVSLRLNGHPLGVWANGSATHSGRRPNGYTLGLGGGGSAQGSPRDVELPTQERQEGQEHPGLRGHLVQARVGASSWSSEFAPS
Assay comment: biochemical
Applied conditions: ratio of Ki A3 (human) to Ki A2A (rat)
Quantity name: A3/A2A

>>> numeric_value("CCCC/C=C/c1nc(N)c2nc(NCC)n([C@@H]3O[C@H](CO)[C@@H](O)[C@H]3O)c2n1 [Compound 18, 2-((E)-1-hexenyl)-8-ethylaminoadenosine]")
9.53
>>> numeric_value("CCCCC#Cc1nc(N)c2nc(NCCC)n([C@@H]3O[C@H](CO)[C@@H](O)[C@H]3O)c2n1 [Compound 14, 2-(1-Hexynyl)-8-propylaminoadenosine]")
26.3
>>> numeric_value("CCCC/C=C/c1nc(N)c2ncn([C@@H]3O[C@H](CO)[C@@H](O)[C@H]3O)c2n1 [Compound 4, 2-((E)-1-hexenyl)adenosine]")
2.78
>>> numeric_value("CCCC/C=C/c1nc(N)c2nc(NCCC)n([C@@H]3O[C@H](CO)[C@@H](O)[C@H]3O)c2n1 [Compound 19, 2-((E)-1-hexenyl)-8-propylaminoadenosine]")
21.1
>>> numeric_value("CCCC/C=C/c1nc(N)c2nc(NC)n([C@@H]3O[C@H](CO)[C@@H](O)[C@H]3O)c2n1 [Compound 17, 2-((E)-1-Hexenyl)-8-methylaminoadenosine]")
20.3
>>> numeric_value("CCCCC#Cc1nc(N)c2nc(NC)n([C@@H]3O[C@H](CO)[C@@H](O)[C@H]3O)c2n1 [Compound 12, 2-(1-Hexynyl)-8-methylaminoadenosine]")
49.0
>>> numeric_value("CCCCC#Cc1nc(N)c2nc(NCC)n([C@@H]3O[C@H](CO)[C@@H](O)[C@H]3O)c2n1 [Compound 13, 2-(1-hexynyl)-8-ethylaminoadenosine]")
34.9

Ref: patent US7112574B2
